Answer each item with its documented Ki.
ASSAYED_TARGET: C-X-C chemokine receptor type 3 (Homo sapiens, UniProt P49682)
Sequence (P49682 whole entry): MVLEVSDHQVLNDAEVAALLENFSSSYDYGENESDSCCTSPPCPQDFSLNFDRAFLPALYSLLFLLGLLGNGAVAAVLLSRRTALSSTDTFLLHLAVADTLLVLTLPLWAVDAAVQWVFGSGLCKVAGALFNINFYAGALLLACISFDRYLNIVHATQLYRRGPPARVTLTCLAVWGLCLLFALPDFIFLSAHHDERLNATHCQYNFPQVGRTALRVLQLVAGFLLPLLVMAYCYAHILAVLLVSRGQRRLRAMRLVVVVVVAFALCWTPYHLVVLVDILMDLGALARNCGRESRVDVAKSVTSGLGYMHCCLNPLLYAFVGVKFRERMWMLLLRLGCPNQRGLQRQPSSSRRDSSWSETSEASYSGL
EXPERIMENTAL_PROTOCOL: Displacement of [125I]-CXCL10 from human CXCR3 expressed in HEK293 cells
Format: cell-based
Answers are plain numbers, in nM.

See these solved cases before continuing.
{"COMPOUND": "C[N+](C)(Cc1ccc(I)cc1)CC1C2CC3CC(C2)CC1C3 (stereo not given)", "Ki, nM": 794}
{"COMPOUND": "CC1(C)[C@H]2CC=C(C[N+](C)(C)Cc3ccc(Cl)c(Cl)c3)[C@@H]1C2", "Ki, nM": 398}

Kindly give each listed record's Ki.
1. COc1ccc(-c2ccc(C[N+](C)(C)CC3=CC[C@H]4C[C@@H]3C4(C)C)cc2)cc1OC
2. CN(C/C1=C/CCCCCC1)Cc1ccc(I)cc1 (mixture of isomers)
3. Ic1ccc(CNCC2C3CC4CC(C3)CC2C4)cc1 (stereo not given)
4. CC1(C)[C@H]2CC=C(C[N+](C)(C)Cc3ccc(-c4ccccc4F)cc3)[C@@H]1C2
5. CN(CC1=CC[C@H]2C[C@@H]1C2(C)C)Cc1ccc(-c2ccccc2)cc1

[501, 7940, 2510, 631, 3160]
